The values you see were collected from patent US12084420B2.

Target: KIF18a-Microtubule Complex (Homo sapiens (Human), UniProt Q8NI77)
Sequence (Q8NI77 whole entry, looked up): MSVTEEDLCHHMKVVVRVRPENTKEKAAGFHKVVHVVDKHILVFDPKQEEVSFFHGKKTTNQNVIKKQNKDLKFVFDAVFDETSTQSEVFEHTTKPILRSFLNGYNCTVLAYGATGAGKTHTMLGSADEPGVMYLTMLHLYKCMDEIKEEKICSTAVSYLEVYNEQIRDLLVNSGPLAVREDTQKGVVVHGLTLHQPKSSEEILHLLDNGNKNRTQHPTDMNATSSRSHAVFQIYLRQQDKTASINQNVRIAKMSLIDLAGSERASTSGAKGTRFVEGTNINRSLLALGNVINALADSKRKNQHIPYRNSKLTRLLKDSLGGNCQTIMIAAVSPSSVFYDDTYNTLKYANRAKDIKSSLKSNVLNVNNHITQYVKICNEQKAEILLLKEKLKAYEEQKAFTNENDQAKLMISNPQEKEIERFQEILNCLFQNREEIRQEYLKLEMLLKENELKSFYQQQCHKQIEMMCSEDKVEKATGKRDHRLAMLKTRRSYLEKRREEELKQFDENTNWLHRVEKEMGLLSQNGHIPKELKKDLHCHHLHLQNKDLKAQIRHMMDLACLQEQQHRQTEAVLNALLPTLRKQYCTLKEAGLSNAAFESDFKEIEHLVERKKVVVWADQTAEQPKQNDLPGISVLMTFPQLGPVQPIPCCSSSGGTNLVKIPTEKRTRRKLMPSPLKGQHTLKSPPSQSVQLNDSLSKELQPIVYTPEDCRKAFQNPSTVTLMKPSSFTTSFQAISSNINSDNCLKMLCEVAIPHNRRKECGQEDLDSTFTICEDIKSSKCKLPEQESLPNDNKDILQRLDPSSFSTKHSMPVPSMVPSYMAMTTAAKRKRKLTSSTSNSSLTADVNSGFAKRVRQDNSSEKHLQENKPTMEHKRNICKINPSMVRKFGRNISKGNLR
Sequence (Q2XVP4 whole entry partner, looked up): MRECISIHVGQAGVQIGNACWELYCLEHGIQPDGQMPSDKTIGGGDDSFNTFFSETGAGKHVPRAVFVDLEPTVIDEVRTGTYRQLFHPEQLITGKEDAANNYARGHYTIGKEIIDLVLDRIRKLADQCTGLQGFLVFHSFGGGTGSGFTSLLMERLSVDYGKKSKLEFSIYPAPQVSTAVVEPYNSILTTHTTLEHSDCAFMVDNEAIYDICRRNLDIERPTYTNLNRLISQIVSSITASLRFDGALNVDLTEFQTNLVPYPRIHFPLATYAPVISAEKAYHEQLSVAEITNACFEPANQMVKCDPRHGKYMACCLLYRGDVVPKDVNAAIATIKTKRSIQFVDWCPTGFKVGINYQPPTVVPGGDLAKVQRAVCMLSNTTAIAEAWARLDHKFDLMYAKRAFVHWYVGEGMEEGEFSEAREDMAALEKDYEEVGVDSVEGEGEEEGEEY
Sequence (P02554 whole entry partner, looked up): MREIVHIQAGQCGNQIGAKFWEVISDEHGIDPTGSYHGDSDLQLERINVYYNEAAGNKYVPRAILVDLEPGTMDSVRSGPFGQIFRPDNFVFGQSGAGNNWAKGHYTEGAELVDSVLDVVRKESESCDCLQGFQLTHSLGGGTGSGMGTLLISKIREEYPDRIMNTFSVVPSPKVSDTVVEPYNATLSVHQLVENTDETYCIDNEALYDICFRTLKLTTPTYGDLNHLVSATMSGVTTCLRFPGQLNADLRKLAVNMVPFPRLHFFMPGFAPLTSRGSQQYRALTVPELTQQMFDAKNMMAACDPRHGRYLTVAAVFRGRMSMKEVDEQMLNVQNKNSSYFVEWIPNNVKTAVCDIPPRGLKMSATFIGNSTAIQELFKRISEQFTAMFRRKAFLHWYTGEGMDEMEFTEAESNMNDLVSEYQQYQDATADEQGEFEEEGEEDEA
Assay: Binding kinetics to KIF18a-microtubule complex (global progress curve analysis)
Settings: read-out: koff (off-rate from binding kinetics assay)
measured.metric: koff (s⁻¹)
Please respond with the number in s⁻¹ and leave the unit unwritten.

Here are 2 molecules together with their reported answers.
[
  {
    "molecule": "CCS(=O)(=O)Nc1ccc2c(c1)C1(CCC3(CC3)CC1)CN2C(=O)c1cccc(S(=O)(=O)NC(C)(C)C)c1",
    "koff, s⁻¹": "5e-06"
  },
  {
    "molecule": "COc1ccc(C(=O)N2CC3(CCC4(CC4)CC3)c3cc(NS(C)(=O)=O)ccc32)cc1S(=O)(=O)NC(C)(C)C",
    "koff, s⁻¹": "3.89e-06"
  }
]

Data point: `CS(=O)(=O)Nc1ccc2c(c1)C1(CCC3(CC3)CC1)CN2C(=O)c1cccc(S(=O)(=O)N2CC(F)(F)C2)c1` ; koff = 1.86e-05

Data point: `CC(C)(C)NS(=O)(=O)c1cc(C(=O)N2CC3(CCC4(CC4)CC3)c3cc(NS(C)(=O)=O)ccc32)ccc1F` ; koff = 6.11e-06

Data point: `CC1(NS(=O)(=O)c2cccc(C(=O)N3CC4(CCC5(CC5)CC4)c4cc(NS(C)(=O)=O)ccc43)c2)CCC1` ; koff = 8.06e-06

Data point: CS(=O)(=O)Nc1ccc2c(c1)C1(CCC3(CC3)CC1)CN2C(=O)c1cccc(S(=O)(=O)N2CC3C(C2)C3(F)F)c1 (stereo not shown) ; koff = 1e-05

Data point: `CC(C)(C)NS(=O)(=O)c1cccc(C(=O)N2CC3(CCC4(CC4)CC3)c3cc(NS(C)(=O)=O)ccc32)c1` ; koff = 5e-06

Data point: CS(=O)(=O)Nc1ccc2c(c1)C1(CCC3(CC3)CC1)CN2C(=O)c1cccc(S(=O)(=O)N2CC[C@@H](F)C2)c1 [(R)-Compound 239] ; koff = 2.39e-05

Data point: `CC(C)(C)NS(=O)(=O)c1cccc(C(=O)N2CC3(CCC4(CC4)CC3)c3cc(NS(=O)(=O)C4CC4)ccc32)c1` ; koff = 5.83e-06

Data point: `CCS(=O)(=O)Nc1ccc2c(c1)C1(CCC3(CC3)CC1)CN2C(=O)c1cccc(S(=O)(=O)N2CC3(CCO3)C2)c1` ; koff = 4.17e-06

Data point: `CCS(=O)(=O)Nc1ccc2c(c1)C1(CCC3(CC3)CC1)CN2C(=O)c1cc(S(=O)(=O)NC(C)(C)C)cs1` ; koff = 2.22e-05

Data point: `CC(C)(C)NS(=O)(=O)c1cccc(C(=O)N2CC3(CCC4(CC4)CC3)c3cc(NS(=O)(=O)CCO)ccc32)c1` ; koff = 3.89e-06

Data point: `CS(=O)(=O)Nc1ccc2c(c1)C1(CCCCC1)CN2C(=O)c1cccc(S(=O)(=O)N2CC3(CCC3)C2)c1` ; koff = 7.78e-05
